# maps each entry to its IC50
Tested target: EGFR L858R (Homo sapiens (Human), UniProt P00533, L858R)
Sequence (P00533 25-1210 L858R): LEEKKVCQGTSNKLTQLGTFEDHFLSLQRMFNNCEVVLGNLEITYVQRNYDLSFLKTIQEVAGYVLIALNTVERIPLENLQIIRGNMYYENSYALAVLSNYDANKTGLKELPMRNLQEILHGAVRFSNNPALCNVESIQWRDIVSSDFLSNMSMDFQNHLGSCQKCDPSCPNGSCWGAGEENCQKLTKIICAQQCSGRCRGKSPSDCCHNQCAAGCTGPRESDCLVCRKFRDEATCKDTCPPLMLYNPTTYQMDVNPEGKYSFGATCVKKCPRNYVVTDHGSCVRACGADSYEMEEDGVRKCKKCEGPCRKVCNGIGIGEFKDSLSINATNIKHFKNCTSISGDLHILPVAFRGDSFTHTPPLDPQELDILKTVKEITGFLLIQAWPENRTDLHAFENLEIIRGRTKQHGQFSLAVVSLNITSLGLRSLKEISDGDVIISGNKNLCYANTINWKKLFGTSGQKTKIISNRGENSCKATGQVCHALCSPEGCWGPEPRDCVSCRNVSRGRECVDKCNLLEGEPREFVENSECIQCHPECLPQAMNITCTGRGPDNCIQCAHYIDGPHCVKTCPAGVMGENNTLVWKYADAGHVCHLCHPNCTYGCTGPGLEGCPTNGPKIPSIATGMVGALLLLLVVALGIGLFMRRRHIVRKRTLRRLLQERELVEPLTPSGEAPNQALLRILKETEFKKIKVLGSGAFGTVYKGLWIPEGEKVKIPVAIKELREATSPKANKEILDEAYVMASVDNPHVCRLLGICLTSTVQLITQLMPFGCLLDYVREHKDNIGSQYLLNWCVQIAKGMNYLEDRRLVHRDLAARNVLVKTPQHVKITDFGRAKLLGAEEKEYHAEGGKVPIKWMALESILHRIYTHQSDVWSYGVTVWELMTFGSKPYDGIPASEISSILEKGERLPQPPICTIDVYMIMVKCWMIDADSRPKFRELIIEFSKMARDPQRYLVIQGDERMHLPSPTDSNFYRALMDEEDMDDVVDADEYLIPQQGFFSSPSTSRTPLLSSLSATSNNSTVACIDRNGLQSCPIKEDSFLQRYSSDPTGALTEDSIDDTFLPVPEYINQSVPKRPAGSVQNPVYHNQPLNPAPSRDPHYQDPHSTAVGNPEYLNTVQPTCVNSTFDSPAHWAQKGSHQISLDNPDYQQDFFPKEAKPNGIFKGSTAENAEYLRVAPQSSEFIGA
Test name: Biochemical EGFR inhibition assay, EGFR L858R
Measurement parameters: Caliper mobility shift; 1.0 mM ATP or ATP Km; read-out: Enz EGFR_L858R IC50
Respond with the bare value in nM.

>  <Compound>
COc1cc2ncnc(-c3cn(C)nc3-c3ccccc3)c2nc1OC(C)c1nnnn1C (centres unmarked)

>  <Value unit>
nM

>  <IC50>
4.8

$$$$
>  <Compound>
CCn1cc(C(=O)Nc2cc3c(-c4cn(CC(F)F)nc4-c4ccccc4)ncnc3cc2OC)cn1

>  <Value unit>
nM

>  <IC50>
1.8

$$$$
>  <Compound>
COc1cc2ncnc(-c3cn(C)nc3-c3ccccc3)c2cc1N1CC[C@H](F)[C@@H](O)C1 (single isomer, unassigned)

>  <Value unit>
nM

>  <IC50>
6.7

$$$$
>  <Compound>
CCOc1cc2ncnc(-c3cn(C)nc3-c3ccccc3)c2cc1N1CC2CC(C1)O2

>  <Value unit>
nM

>  <IC50>
1.9

$$$$

API: the following record is the query input.
IC50 for COc1cc2ncnc(-c3cn(CC(F)F)nc3-c3ccccc3)c2cc1NC(=O)c1cncs1 is 0.9

* * *

Property: pIC50; scope: individual molecules
Tested target: EGFR L858R (Homo sapiens (Human), UniProt P00533, L858R)
Test name: Biochemical EGFR inhibition assay, EGFR L858R
Measurement parameters: Caliper mobility shift; 1.0 mM ATP or ATP Km; read-out: Enz EGFR_L858R IC50
Scale note: pIC50 = -log10(concentration in M).

Worked examples follow.
>  <Molecule>
COc1cc2ncnc(-c3cn(C)nc3-c3ccccc3)c2cc1OC(=O)N1CCN(C)CC1C (centres unmarked)

>  <Tested target>
EGFR L858R (Homo sapiens (Human), UniProt P00533, L858R)

>  <Readout number>
8.64

$$$$
>  <Molecule>
CN(C)CCOc1cc2ncnc(-c3cn(C)nc3-c3ccccc3)c2nc1NC(=O)C12COCC1C2 (centres unmarked)

>  <Tested target>
EGFR L858R (Homo sapiens (Human), UniProt P00533, L858R)

>  <Readout number>
7.59

$$$$
>  <Molecule>
COc1cc2ncnc(-c3cn(C)nc3-c3ccccc3)c2cc1NC(=O)c1ccnnc1

>  <Tested target>
EGFR L858R (Homo sapiens (Human), UniProt P00533, L858R)

>  <Readout number>
8.64

$$$$
>  <Molecule>
COc1cc2ncnc(-c3cn(C)nc3-c3ccccc3)c2cc1OC(=O)N1CCNCC1(C)C

>  <Tested target>
EGFR L858R (Homo sapiens (Human), UniProt P00533, L858R)

>  <Readout number>
8.30

$$$$
>  <Molecule>
CCOc1cc2ncnc(-c3cn(C)nc3-c3ccccc3)c2cc1NC(=O)[C@]12C[C@H]1CN(C)C2 (single isomer, unassigned)

>  <Tested target>
EGFR L858R (Homo sapiens (Human), UniProt P00533, L858R)

>  <Readout number>
8.82

$$$$

The measured pIC50 associated with COc1cc2ncnc(-c3cn(CC(F)F)nc3-c3ccccc3)c2cc1NC(=O)c1ccns1 reads 8.92

Briefly, pIC50 measured for COc1cc2ncnc(-c3cn(C)nc3-c3ccccc3)c2cc1-c1cc2c[nH]nc2cc1C [Example 147] : 7.86

// COC(=O)Nc1cc2c(-c3cn(C)nc3-c3ccccc3)ncnc2cc1OC : pIC50 value = 9.00

* * *

Tested target: EGFR L858R (Homo sapiens (Human), UniProt P00533, L858R)
Test name: Biochemical EGFR inhibition assay, EGFR L858R
Measurement parameters: Caliper mobility shift; 1.0 mM ATP or ATP Km; read-out: Enz EGFR_L858R IC50
Reported metric: pIC50
Scale: negative log10 of molar concentration, which is what pIC50 denotes.

Answered examples (6):
>  <Compound>
CCOc1cc2ncnc(-c3cn(C4CC4)nc3-c3ccccc3)c2cc1[C@@H](C)O (single isomer, unassigned) [Example 111]

>  <pIC50>
8.85

$$$$
>  <Compound>
COc1cc2ncnc(-c3cn(C)nc3-c3ccccc3)c2cc1OC(=O)N1CCO[C@@H](C)[C@@H]1C [Example 72]

>  <pIC50>
8.42

$$$$
>  <Compound>
Cc1c(-c2ncnc3cc(-c4cnn(C)c4)ccc23)c(-c2ccccc2)nn1C [Example 480]

>  <pIC50>
8.25

$$$$
>  <Compound>
COc1cc2ncnc(-c3cn(C)nc3-c3ccc(F)cc3)c2cc1NC(=O)c1scnc1C [Example 304]

>  <pIC50>
8.74

$$$$
>  <Compound>
COc1cc2ncnc(-c3cn(C)nc3-c3ccccc3)c2cc1NC(=O)C1CCC1 [Example 347]

>  <pIC50>
8.62

$$$$
>  <Compound>
COc1cc2ncnc(-c3cn(C)nc3-c3ccccc3)c2nc1-c1cccc2c1OCC(=O)N2 [Example 154]

>  <pIC50>
8.42

$$$$

Then there is this compound:
The compound identified as COc1cc2ncnc(-c3c[nH]nc3-c3ccccc3)c2nc1NC(=O)C1(C(F)(F)F)CC1 [Example 372] registered its pIC50 at 8.80

* * *

Recorded IC50, one value per entry.
Tested target: EGFR L858R (Homo sapiens (Human), UniProt P00533, L858R)
Test name: Biochemical EGFR inhibition assay, EGFR L858R
Measurement parameters: Caliper mobility shift; 1.0 mM ATP or ATP Km; read-out: Enz EGFR_L858R IC50
Return type: number; implicit unit nM.

In plain terms, COc1cc2ncnc(-c3cn(CC(F)F)nc3-c3ccccc3)c2cc1NC(=O)c1scnc1C has a documented IC50 of 1.5

IC50 reported for this compound COc1cc2ncnc(-c3cn(CC(F)F)nc3-c3ccccc3)c2nc1NC(=O)C1(C(F)(F)F)CC1 : 1.1

Value of measured IC50 for the entry COc1cc2ncnc(-c3cn(C)nc3-c3ccc(F)cc3)c2nc1NC(=O)[C@@]12C[C@@H]1CN(C)C2 (single isomer, unassigned) : 2.9

// recorded IC50 for CC(C)Oc1cc2ncnc(-c3cn(C)nc3-c3ccccc3)c2cc1OC(C)C : 2.9

Note to self: IC50 recorded for COc1cc2ncnc(-c3cn(C)nc3-c3ccccc3)c2nc1NC(=O)C1(C)CCCO1 (stereo not shown) was 3.5

So, COc1cc2ncnc(-c3cn(C)nc3-c3ccccc3)c2cc1NC(=O)C(C)(C)F ? Its IC50 was 3.1

* * *

pIC50 for assorted compounds
Tested target: pEGFR (Tyr1068) in PC-9 cells (Ex19Del) (Homo sapiens (Human), UniProt P00533, DEL746-750)
Sequence (P00533 other isoform, or with tags, fused parts or gaps del 746-750): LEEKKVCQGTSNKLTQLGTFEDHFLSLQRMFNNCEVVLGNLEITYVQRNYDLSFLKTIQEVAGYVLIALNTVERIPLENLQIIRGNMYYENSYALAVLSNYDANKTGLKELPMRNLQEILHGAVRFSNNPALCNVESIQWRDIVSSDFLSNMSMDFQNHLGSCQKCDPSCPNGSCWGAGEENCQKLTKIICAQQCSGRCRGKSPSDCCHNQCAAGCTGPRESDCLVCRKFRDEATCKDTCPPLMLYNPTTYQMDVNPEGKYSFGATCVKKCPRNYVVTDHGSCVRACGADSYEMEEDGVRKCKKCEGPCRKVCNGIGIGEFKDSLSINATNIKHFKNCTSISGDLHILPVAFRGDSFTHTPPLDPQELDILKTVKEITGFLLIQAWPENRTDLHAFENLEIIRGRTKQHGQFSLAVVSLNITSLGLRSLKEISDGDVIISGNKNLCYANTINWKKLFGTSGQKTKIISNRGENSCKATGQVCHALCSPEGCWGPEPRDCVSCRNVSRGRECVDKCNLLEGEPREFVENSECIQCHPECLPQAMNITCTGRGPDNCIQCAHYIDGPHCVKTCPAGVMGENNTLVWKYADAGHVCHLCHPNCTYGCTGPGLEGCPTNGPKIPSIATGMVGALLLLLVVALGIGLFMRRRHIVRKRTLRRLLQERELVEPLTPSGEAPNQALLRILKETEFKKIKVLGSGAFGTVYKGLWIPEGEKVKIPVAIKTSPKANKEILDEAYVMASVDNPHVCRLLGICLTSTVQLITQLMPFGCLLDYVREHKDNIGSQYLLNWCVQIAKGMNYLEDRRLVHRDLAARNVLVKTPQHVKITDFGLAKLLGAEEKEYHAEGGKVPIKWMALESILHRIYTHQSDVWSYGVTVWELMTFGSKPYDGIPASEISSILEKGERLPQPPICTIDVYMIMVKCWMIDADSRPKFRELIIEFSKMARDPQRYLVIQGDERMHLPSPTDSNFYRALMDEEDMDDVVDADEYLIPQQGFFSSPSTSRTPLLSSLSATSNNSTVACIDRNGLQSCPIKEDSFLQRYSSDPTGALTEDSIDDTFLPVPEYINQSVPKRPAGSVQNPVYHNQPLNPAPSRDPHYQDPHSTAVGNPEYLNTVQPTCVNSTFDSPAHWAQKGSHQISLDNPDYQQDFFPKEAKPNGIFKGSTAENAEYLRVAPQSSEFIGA
Test name: PC-9 pEGFR AlphaLISA assay
Measurement parameters: 4 hours incubation, p-EGFR (Tyr1068) AlphaLISA, read-out: Ext pEGFR_PC-9 Ex19Del IC50
Formally, pIC50 is defined as -log10 of the concentration c, with c in mol/L.

>  <Compound>
CN1CCC(n2cc(-c3ccc4c(-c5c[nH]nc5-c5ccccc5)ncnc4c3)cn2)CC1

>  <Tested target>
pEGFR (Tyr1068) in PC-9 cells (Ex19Del) (Homo sapiens (Human), UniProt P00533, DEL746-750)

>  <Readout number>
9.40

$$$$
>  <Compound>
COc1cc2ncnc(-c3cn(C)nc3-c3ccccc3)c2cc1-c1cccc2c1cnn2C

>  <Tested target>
pEGFR (Tyr1068) in PC-9 cells (Ex19Del) (Homo sapiens (Human), UniProt P00533, DEL746-750)

>  <Readout number>
8.12

$$$$
>  <Compound>
COc1cc2ncnc(-c3cn(C)nc3-c3ccccc3)c2nc1OC(C)c1cocn1 (centres unmarked)

>  <Tested target>
pEGFR (Tyr1068) in PC-9 cells (Ex19Del) (Homo sapiens (Human), UniProt P00533, DEL746-750)

>  <Readout number>
9.15

$$$$
>  <Compound>
COc1cc2ncnc(-c3cn(C)nc3-c3ccccc3)c2nc1O[C@@H](C)c1ncsc1C (single isomer, unassigned)

>  <Tested target>
pEGFR (Tyr1068) in PC-9 cells (Ex19Del) (Homo sapiens (Human), UniProt P00533, DEL746-750)

>  <Readout number>
8.80

$$$$

Entry COc1cc2ncnc(-c3cn(C)nc3-c3ccccc3)c2nc1NC(=O)c1ccc(C2CC2)nc1 ; pIC50 = 8.36

* * *

# IC50 values compiled below
Tested target: pEGFR (Tyr1068) in PC-9 cells (Ex19Del) (Homo sapiens (Human), UniProt P00533, DEL746-750)
Test name: PC-9 pEGFR AlphaLISA assay
Measurement parameters: 4 hours incubation, p-EGFR (Tyr1068) AlphaLISA, read-out: Ext pEGFR_PC-9 Ex19Del IC50
Express the reported value numerically, then name its unit.

The examples below pair each entry with its known result.
>  <Compound>
COc1cc2ncnc(-c3cn(CC(F)F)nc3-c3ccccc3)c2cc1N1CCOCC1

>  <IC50>
0.8 nM

$$$$
>  <Compound>
COc1cc2ncnc(-c3cn(C)nc3-c3ccccc3)c2nc1NC(=O)c1ccc(F)cc1

>  <IC50>
8.8 nM

$$$$
>  <Compound>
COc1cc2ncnc(-c3cn(C)nc3-c3ccccc3)c2nc1NC(=O)[C@]12C[C@H]1CN(C)C2 (single isomer, unassigned)

>  <IC50>
3.5 nM

$$$$
>  <Compound>
COc1cc2ncnc(-c3cn(C)nc3-c3ccccc3)c2cc1C(O)C1CC1 (stereo not drawn)

>  <IC50>
12.5 nM

$$$$
>  <Compound>
Cn1cc(-c2ncnc3cc(OC(F)F)c(NC(=O)C4(C(F)(F)F)CC4)nc23)c(-c2ccccc2)n1

>  <IC50>
3.5 nM

$$$$

Recorded IC50 (compound COc1cc2ncnc(-c3cn(C)nc3-c3ccccc3)c2cc1OC(=O)N1CCN(C)[C@H](C)[C@@H]1C ): 9.3 nM
